- Test system: Chlorella vulgaris (CCAP 211/12)
- EXPERIMENTAL DETAILS: Poison plate assay in 96 multi-well plates, algae growth
- Format: cell-based
- TEST CONTEXT: single active ingredient, incubation time 18 days
Marks after values point to notes of the source that are not given here.
MEASUREMENT NAME: MIC-values (minimum inhibitory concentration)

>>> print(df.to_string())
                                   compound                  target_or_system      result
0  N#Cc1c(-c2ccc(Cl)cc2)[nH]c(C(F)(F)F)c1Br  Chlorella vulgaris (CCAP 211/12)  > 100* ppm
1  [O-][S+]1CCON=C1c1cc2ccccc2s1 (centres unmarked)  Chlorella vulgaris (CCAP 211/12)     1.6 ppm
2                 CCCCCCCCn1sc(Cl)c(Cl)c1=O  Chlorella vulgaris (CCAP 211/12)     1.6 ppm
3   Cc1ccc(N(SC(F)(Cl)Cl)S(=O)(=O)N(C)C)cc1  Chlorella vulgaris (CCAP 211/12)      25 ppm
4      CN(C)S(=O)(=O)N(SC(F)(Cl)Cl)c1ccccc1  Chlorella vulgaris (CCAP 211/12)      25 ppm

Reference source for all entries: patent US8841339B2
